Reference for the values: ChEMBL document CHEMBL2331531

- Measurement Protocol: AUC in Sprague-Dawley rat at 1 mg/kg, iv by LC-MS/MS analysis
- Assay type: ADME, organism-based, Plasma
- Design: dose 1 mg/kg, route intravenous
- Particulars: Sprague-Dawley, plasma
Parameter Measured: AUC (µM·h)

# Compound, Unit Spec, Measurement
rows = [
    ("O=C(Nc1ccc(-c2cn[nH]c2)cc1)NC(CCO)c1cccc(F)c1 (stereo unspecified)", "µM·h", 9.5),
    ("COc1cccc(CN(CCN2CCCCC2)C(=O)Nc2ccc(-c3cn[nH]c3)cc2)c1", "µM·h", 0.4),
    ("COc1cccc(CN(CCN2CCOCC2)C(=O)Nc2ccc(-c3cn[nH]c3)cc2)c1", "µM·h", 0.6),
    ("COc1cccc(CN(C)C(=O)Nc2ccc(-c3cn[nH]c3)cc2)c1", "µM·h", 5.9),
]

A: COc1cccc(CN(CCO)C(=O)Nc2ccc(-c3cn[nH]c3)cc2)c1
B: COc1cccc(CN(CCN(C)C)C(=O)Nc2ccc(-c3cn[nH]c3)cc2)c1
Hi there, can you help? I need to know whether A or B has lower measured AUC. Lab log: write the label of the selected item as the result.
B
